- Test system: Wild type
- assayComment: S. aureus survival, RN4220 and DeltatarO strains – OD600, teichoic acid synthesis inhibitors, primary screen (AID 463173)
- testParameters: S. aureus RN4220 wild type/DeltatarO growth, OD600, 18 h, screened at 18.75 µg/mL (by protocol)
In all, about 52,000 compounds went through this assay and about 1,700 (3.3%) were called active. No stated cut-off is given here; in the data, active means survival mostly below about 52% (no sharp cut-off); inactive means mostly above about 56%. The sample as a whole holds a higher share of actives than the screen did.
Labels: active, inactive

CCCCn1c(SCC(=O)NCc2ccc(C)cc2)nc2c(sc3ccccc32)c1=O :: inactive
O=C(CCN1CCCCC1)Nc1ccccc1 :: inactive
Cn1c(=O)cc(OCC(=O)NCc2ccc(F)cc2Cl)c2ccccc21 :: inactive
Cc1cc2ncn(CCCCOc3ccccc3)c2cc1C :: active
CCSc1nc2c(c(=O)[nH]c(=O)n2C)n1CC(O)COc1ccc(Cl)cc1 (stereo not drawn) :: inactive
c1ccc2c(c1)ncn2CCn1cnc2ccccc21 :: inactive
Cc1cc2ncn(CCC(=O)Nc3ccccc3F)c2cc1C :: inactive
O=C1CCCc2cc(S(=O)(=O)NCC3CCC(C(=O)NCc4ccc(F)cc4)CC3)ccc2N1 (stereo not drawn) :: inactive
Cc1ccccc1NC(=O)Cn1nc(-c2ccccc2)nc(Cc2ccccc2)c1=O :: inactive
COc1ccc(N2CCN(S(=O)(=O)c3cc(Br)cc4c3N(C(=O)C3CC3)CC4)CC2)cc1 :: inactive
CCCCn1c(SCC(=O)c2ccccc2)nc2c(sc3ccccc32)c1=O :: active
CC(=O)OC(COc1ccccc1)Cn1cnc2cc(C)c(C)cc21 (stereo not drawn) :: inactive
COc1ccc(OCCn2cnc3ccccc32)cc1 :: inactive
